target: Neu5Ac(a2-6)Gal(b1-4)GlcNAc(b1-2)Man(a1-3)[Neu5Ac(a2-6)Gal(b1-4)GlcNAc(b1-2)Man(a1-6)]Man(b1-4)GlcNAc(b1-4)GlcNAc; assay: glycan array binding signal (z-score within array); higher = stronger binding; settings: glycan notation: IUPAC condensed, linker removed
Shown is part of a subset that was picked to be rich in the strongest signals.
Below is a list of entries, each paired with its recorded glycan array binding signal (z-score) value.
Respond with the number and no other words.

In the examples that follow, each entry is paired with its recorded glycan array binding signal (z-score).
MSMEG3662-2a (Mycobacterium smegmatis), A0QYH7_MYCS2 (protein) MGDTLTAGQKLERGGSLQSGNGAYTLTLQDDGNLVLYARDKAVWSTGTNGQDVVRAEVQTDGNFVLYTAEKPVWHTDTKGKKEVKLVLQDDRNLVLYAKDGPAWSSKTDTTEPPPPAPEPEKEAEVAPAAAEEAAPAPVAEPAPAEPAPAAPPPAPPAPRTYTVVSGDTLWAIAERFYGDGSKYQQIADASGIANPDLIHPGQVLTIP: -0.046
DC-ASGPR Long (Homo sapiens) (protein) MTRTYENFQYLENKVKVQGFKNGPLPLQSLLQRLRSGPCHLLLSLGLGLLLLVIICVVGFQNSKFQRDLVTLRTDFSNFTSNTVAEIQALTSQGSSLEETIASLKAEVEGFKQERQAGVSELQEHTTQKAHLGHCPHCPSVCVPVHSEMLLRVQQLVQDLKKLTCQVATLNNNASTEGTCCPVNWVEHQDSCYWFSHSGMSWAEAEKYCQLKNAHLVVINSREEQNFVQKYLGSAYTWMGLSDPEGAWKWVDGTDYATGFQNWKPGQPDDWQGHGLGGGEDCAHFHPDGGWNDDVCQRPYHWVCEAGLGQTSQESH: -0.115
Gal 4 (Mus musculus), P56470 (protein) MAYVPAPGYQPTYNPTLPYYQPIPGGLNVGMSVYIQGVASEHMKRFFVNFVVGQDPGSDVAFHFNPRFDGWDKVVFNTLQGGKWGSEERKRSMPFKKGAAFELVFIVLAEHYKVVVNGNPFYEYGHRLPLQMVTHLQVDGDLQLQSINFIGGQPLRPQGPPMMPPYPGPGHCHQQLNSLPTMEGPPTFNPPVPYFGRLQGGLTARRTIIIKGYVPPTGKSFAINFKVGSSGDIALHINPRMGNGTVVRNSLLNGSWGSEEKKITHNPFGPGQFFDLSIRCGLDRFKVYANGQHLFDFAHRLSAFQRVDTLEIQGDVTLSYVQI: -0.226

Endpoint output: glycan array binding signal (z-score) of MFG-E8 (Homo sapiens), Q08431 (protein) MPRPRLLAALCGALLCAPSLLVALDICSKNPCHNGGLCEEISQEVRGDVFPSYTCTCLKGYAGNHCETKCVEPLGLENGNIANSQIAASSVRVTFLGLQHWVPELARLNRAGMVNAWTPSSNDDNPWIQVNLLRRMWVTGVVTQGASRLASHEYLKAFKVAYSLNGHEFDFIHDVNKKHKEFVGNWNKNAVHVNLFETPVEAQYVRLYPTSCHTACTLRFELLGCELNGCANPLGLKNNSIPDKQITASSSYKTWGLHLFSWNPSYARLDKQGNFNAWVAGSYGNDQWLQVDLGSSKEVTGIITQGARNFGSVQFVASYKVAYSNDSANWTEYQDPRTGSSKIFPGNWDNHSHKKNLFETPILARYVRILPVAWHNRIALRLELLGC . Value?
1.09
